- Test system: TYK2 (Homo sapiens)
- Sequence (P29597 whole entry): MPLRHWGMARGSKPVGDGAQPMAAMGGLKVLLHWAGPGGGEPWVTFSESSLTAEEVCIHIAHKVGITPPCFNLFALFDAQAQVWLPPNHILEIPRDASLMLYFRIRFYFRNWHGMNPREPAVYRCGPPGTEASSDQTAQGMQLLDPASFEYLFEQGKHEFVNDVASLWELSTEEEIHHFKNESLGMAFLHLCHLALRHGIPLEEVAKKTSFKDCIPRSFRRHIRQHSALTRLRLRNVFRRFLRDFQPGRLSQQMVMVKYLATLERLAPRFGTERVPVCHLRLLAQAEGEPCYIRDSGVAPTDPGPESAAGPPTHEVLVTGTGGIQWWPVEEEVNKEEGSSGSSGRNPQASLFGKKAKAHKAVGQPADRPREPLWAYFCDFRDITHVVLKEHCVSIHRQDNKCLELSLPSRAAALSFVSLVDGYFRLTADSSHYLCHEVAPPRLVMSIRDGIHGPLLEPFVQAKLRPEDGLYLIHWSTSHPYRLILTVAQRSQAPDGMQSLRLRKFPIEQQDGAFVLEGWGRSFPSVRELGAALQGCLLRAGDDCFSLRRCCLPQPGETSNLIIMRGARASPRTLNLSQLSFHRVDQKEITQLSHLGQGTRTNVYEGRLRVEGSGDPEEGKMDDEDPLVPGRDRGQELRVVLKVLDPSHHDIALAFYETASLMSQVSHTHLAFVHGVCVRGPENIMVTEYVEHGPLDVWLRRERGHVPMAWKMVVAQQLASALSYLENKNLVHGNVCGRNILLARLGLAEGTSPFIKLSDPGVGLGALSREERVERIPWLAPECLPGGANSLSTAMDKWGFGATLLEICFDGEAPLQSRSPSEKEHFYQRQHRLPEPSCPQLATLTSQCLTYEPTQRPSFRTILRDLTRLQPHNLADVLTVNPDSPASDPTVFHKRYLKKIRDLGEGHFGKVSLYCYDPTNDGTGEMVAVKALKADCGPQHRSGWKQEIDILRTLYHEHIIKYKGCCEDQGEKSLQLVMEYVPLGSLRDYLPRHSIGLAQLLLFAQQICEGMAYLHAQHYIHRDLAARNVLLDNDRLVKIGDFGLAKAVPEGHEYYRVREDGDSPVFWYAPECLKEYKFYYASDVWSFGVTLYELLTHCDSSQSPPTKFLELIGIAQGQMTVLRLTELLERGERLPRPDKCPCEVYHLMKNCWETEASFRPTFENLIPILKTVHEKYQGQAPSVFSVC
- Assay method text: TYK2 kinase inhibition (Table A1)
- Assay type: biochemical
Where a name gives a salt, the structure may show the parent alone.
Measured IC50, listed per entry for reference.
Quantity: IC50 (nM)

[[record]]
compound = "CC(C)C(=O)N1CCC(CC(=O)Nc2ccc3cc2CCc2cccc(c2)Nc2ncc(Cl)c(n2)N3)CC1 [Example A89, trifluoroacetate]"
unit_spec = "nM"
reading_qualifier = "="
test_result = 3

[[record]]
compound = "O=C(c1ccccn1)N1Cc2cccc(c2)Nc2ncc(Cl)c(n2)Nc2cccc1c2 [Example C23]"
unit_spec = "nM"
reading_qualifier = "="
test_result = 1140

[[record]]
compound = "CC(Oc1ccc2cc1CCc1cccc(c1)Nc1ncc(Cl)c(n1)N2)C(=O)Nc1ccccc1 (stereo not shown) [Example A16, trifluoroacetate]"
unit_spec = "nM"
reading_qualifier = "="
test_result = 32

[[record]]
compound = "CCS(=O)(=O)N1CCC(CC(=O)Nc2ccc3cc2CCc2cccc(c2)Nc2ncc(Cl)c(n2)N3)CC1 [Example A83, trifluoroacetate]"
unit_spec = "nM"
reading_qualifier = "="
test_result = 2.5

[[record]]
compound = "c1cc2cc(c1)Nc1ccnc(n1)Nc1cccc(c1)CC2 [Example A3, trifluoroacetate]"
unit_spec = "nM"
reading_qualifier = "="
test_result = 55

[[record]]
compound = "CC(C)(C)C(=O)N1CCC(CC(=O)Nc2ccc3cc2CCc2cncc(c2)Nc2ncc(Cl)c(n2)N3)CC1 [Example A112, bis(trifluoroacetate)]"
unit_spec = "nM"
reading_qualifier = "="
test_result = 61

[[record]]
compound = "O=C(CC1CCN(c2cccc(F)n2)CC1)Nc1ccc2cc1CCc1cncc(c1)Nc1ncc(Cl)c(n1)N2 [Example A181, tris(trifluoroacetate)]"
unit_spec = "nM"
reading_qualifier = "="
test_result = 89

[[record]]
compound = "COc1cc2cc(c1)Nc1nc(ncc1Cl)Nc1cccc(c1)CC2 [Example A21, trifluoroacetate]"
unit_spec = "nM"
reading_qualifier = "="
test_result = 98

[[record]]
compound = "N#Cc1cccc(C(=O)N2CCC(CC(=O)Nc3ccc4cc3CCc3cncc(c3)Nc3ncc(Cl)c(n3)N4)CC2)c1 [Example A191, bis(trifluoroacetate)]"
unit_spec = "nM"
reading_qualifier = ">"
test_result = 200

[[record]]
compound = "O=C(CC1CCN(C(=O)c2ccccc2)CC1)Nc1ccc2cc1CCc1cncc(c1)Nc1ncc(Cl)c(n1)N2 [Example A192, bis(trifluoroacetate)]"
unit_spec = "nM"
reading_qualifier = ">"
test_result = 200

[[record]]
compound = "Cc1cc(N2CCC(CC(=O)Nc3ccc4cc3CCc3cccc(c3)Nc3ncc(Cl)c(n3)N4)CC2)no1 [Example A248, trifluoroacetate]"
unit_spec = "nM"
reading_qualifier = "="
test_result = 82

[[record]]
compound = "Cc1cc(C(=O)N2CCC(CC(=O)Nc3ccc4cc3CCc3cccc(c3)Nc3ncc(C)c(n3)N4)CC2)no1 [Example C54, trifluoroacetate]"
unit_spec = "nM"
reading_qualifier = "="
test_result = 199

[[record]]
compound = "COc1ccc(S(=O)(=O)N2CCC(CC(=O)Nc3ccc4cc3CCc3cccc(c3)Nc3ncc(Cl)c(n3)N4)CC2)cc1 [Example A207, trifluoroacetate]"
unit_spec = "nM"
reading_qualifier = ">"
test_result = 200


---

- Test system: TYK2 (Homo sapiens)
- Assay method text: TYK2 kinase inhibition (Table A1)
- Format: biochemical
- Measurement conditions: Table B1
pIC50: −log10 of the molar value. Counter-ions that a name gives are not always drawn.
// thresholds for pIC50 classes: low: < 7; mid: ≥ 7 and < 8; high: ≥ 8

[[record]]
compound = "N#Cc1ccc(C(=O)Nc2ccc3cc2CCc2cccc(c2)Nc2ncc(Cl)c(n2)N3)cc1 [Example B64, trifluoroacetate]"
label = "high"

[[record]]
compound = "O=S(=O)(Nc1ccc2cc1CCc1cccc(c1)Nc1ncc(Cl)c(n1)N2)c1ccc(C(F)(F)F)cc1 [Example B162, trifluoroacetate]"
label = "high"

[[record]]
compound = "O=C(c1coc(Nc2ccc3cc2CCc2cccc(c2)Nc2ncc(Cl)c(n2)N3)n1)N1CCN2CCCC2C1 (centres unmarked)"
label = "mid"

[[record]]
compound = "Cc1cnc2nc1Nc1cccc(c1)CCc1cccc(c1)N2 [Example B2, trifluoroacetate]"
label = "mid"

[[record]]
compound = "O=C(Nc1ccc2cc1CCc1cccc(c1)Nc1ncc(Cl)c(n1)N2)C1CCC1 [Example B57, hydrochloride]"
label = "mid"

[[record]]
compound = "O=[N+]([O-])c1ccc(CN2CCN(Cc3cc4cc(c3)Nc3nc(ncc3Cl)Nc3cccc(c3)CC4)CC2)cc1 [Example B194, tris(trifluoroacetate)]"
label = "low"

[[record]]
compound = "O=C(Nc1ccc2cc1CCc1cccc(c1)Nc1ncc(Cl)c(n1)N2)NC1CCCNC1 (centres unmarked) [Example B238, bis(trifluoroacetate)]"
label = "mid"

[[record]]
compound = "O=C(Nc1ccc2cc1CCc1cncc(c1)Nc1ncc(Cl)c(n1)N2)N1CCN(c2ccccc2Cl)CC1 [Example B305, bis(trifluoroacetate)]"
label = "mid"

[[record]]
compound = "CCOc1ccccc1NC(=O)Nc1ccc2cc1CCc1cccc(c1)Nc1ncc(Cl)c(n1)N2 [Example B106, trifluoroacetate]"
label = "mid"

[[record]]
compound = "O=C(Nc1ccc(F)c(Cl)c1)c1cc2cc(c1)Nc1nc(ncc1Cl)Nc1cccc(c1)CC2 [Example B7, trifluoroacetate]"
label = "low"


---

The following molecules are shown together with reported pIC50 values.
- Test system: TYK2 (Homo sapiens)
- Assay method text: TYK2 kinase inhibition (Table A1)
- Type: biochemical
- Measurement conditions: Table B1
pIC50: −log10 of the molar value. Counter-ions that a name gives are not always drawn.
Quantity: pIC50

[[record]]
molecule = "Clc1cnc2nc1Nc1ccc(-c3cn[nH]c3)c(c1)CCc1cncc(c1)N2 [Example B350, tris(trifluoroacetate)]"
quantity = "pIC50"
reading_qualifier = "="
test_result = 6.61

[[record]]
molecule = "O=C(Nc1ccc2cc1CCc1cccc(c1)Nc1ncc(Cl)c(n1)N2)c1cnc2ccccc2n1 [Example B72, bis(trifluoroacetate)]"
quantity = "pIC50"
reading_qualifier = "="
test_result = 7.11

[[record]]
molecule = "O=C(NCc1ccccc1)Nc1ccc2cc1CCc1cccc(c1)Nc1ncc(Cl)c(n1)N2 [Example B93, trifluoroacetate]"
quantity = "pIC50"
reading_qualifier = "="
test_result = 7.92

[[record]]
molecule = "CN(Cc1ccc2cc1CCc1cncc(c1)Nc1ncc(Cl)c(n1)N2)CC1CCN(S(=O)(=O)c2ccccc2)CC1 [Example B341, tris(trifluoroacetate)]"
quantity = "pIC50"
reading_qualifier = "<"
test_result = 6.40

[[record]]
molecule = "O=C(Nc1cccc(N2CCOCC2)n1)Nc1ccc2cc1CCc1cccc(c1)Nc1ncc(Cl)c(n1)N2 [Example B133, bis(trifluoroacetate)]"
quantity = "pIC50"
reading_qualifier = "="
test_result = 6.54

[[record]]
molecule = "CN1CCN(C(=O)c2cc3cc(c2)Nc2nc(ncc2Cl)Nc2cccc(c2)CC3)CC1 [Example B8, trifluoroacetate]"
quantity = "pIC50"
reading_qualifier = "<"
test_result = 6.00

[[record]]
molecule = "O=C(Nc1ccc2cc1CCc1cccc(c1)Nc1ncc(Cl)c(n1)N2)c1ccc(C(F)(F)F)nc1 [Example B77, bis(trifluoroacetate)]"
quantity = "pIC50"
reading_qualifier = "="
test_result = 8.10

[[record]]
molecule = "CN(Cc1ccc2cc1CCc1cncc(c1)Nc1ncc(Cl)c(n1)N2)C(=O)C1CCN(C(=O)c2ccno2)CC1 [Example B336, bis(trifluoroacetate)]"
quantity = "pIC50"
reading_qualifier = "<"
test_result = 6.70

[[record]]
molecule = "O=C(Nc1ccc2cc1CCc1cccc(c1)Nc1ncc(Cl)c(n1)N2)NC12CC3CC(CC(C3)C1)C2 [Example B127, trifluoroacetate]"
quantity = "pIC50"
reading_qualifier = "="
test_result = 7.05

[[record]]
molecule = "CS(=O)(=O)Nc1ccc2cc1CCc1cccc(c1)Nc1ncc(Cl)c(n1)N2 [Example B140, trifluoroacetate]"
quantity = "pIC50"
reading_qualifier = "="
test_result = 9.05

[[record]]
molecule = "COc1cccc(C(=O)Nc2ccc3cc2CCc2cccc(c2)Nc2ncc(Cl)c(n2)N3)c1 [Example B66, trifluoroacetate]"
quantity = "pIC50"
reading_qualifier = "="
test_result = 8.35

[[record]]
molecule = "CS(=O)(=O)N1CC[C@H](NC(=O)Nc2ccc3cc2CCc2cccc(c2)Nc2ncc(Cl)c(n2)N3)C1 [Example B172, trifluoroacetate]"
quantity = "pIC50"
reading_qualifier = "="
test_result = 8.59

[[record]]
molecule = "O=C(Nc1ccc2cc1CCc1cncc(c1)Nc1ncc(Cl)c(n1)N2)N1CCN(c2cnccn2)CC1 [Example B294, (trifluoroacetate)]"
quantity = "pIC50"
reading_qualifier = "="
test_result = 7.07

[[record]]
molecule = "CC(=O)NCCNC(=O)Nc1ccc2cc1CCc1cccc(c1)Nc1ncc(Cl)c(n1)N2 [Example B186, trifluoroacetate]"
quantity = "pIC50"
reading_qualifier = "="
test_result = 8.02

[[record]]
molecule = "O=C(Nc1ccc2cc1CCc1cccc(c1)Nc1ncc(Cl)c(n1)N2)N[C@H]1CCN(C(=O)C2CC2)C1 [Example B228, trifluoroacetate]"
quantity = "pIC50"
reading_qualifier = "="
test_result = 7.72

[[record]]
molecule = "Cc1noc(C)c1C(=O)Nc1ccc2cc1CCc1cccc(c1)Nc1ncc(Cl)c(n1)N2 [Example B40, trifluoroacetate]"
quantity = "pIC50"
reading_qualifier = "="
test_result = 8.68

[[record]]
molecule = "CC(CO)NC(=O)Nc1ccc2cc1CCc1cccc(c1)Nc1ncc(Cl)c(n1)N2 (stereo not shown) [Example B242, trifluoroacetate]"
quantity = "pIC50"
reading_qualifier = "="
test_result = 8.16

[[record]]
molecule = "O=C(Nc1ccc2cc1CCc1cccc(c1)Nc1ncc(Cl)c(n1)N2)c1cnccn1 [Example B44, bis(trifluoroacetate)]"
quantity = "pIC50"
reading_qualifier = "="
test_result = 7.66

[[record]]
molecule = "COc1cccc(N2CCN(C(=O)Nc3ccc4cc3CCc3cncc(c3)Nc3ncc(Cl)c(n3)N4)CC2)c1 [Example B304, tris(trifluoroacetate)]"
quantity = "pIC50"
reading_qualifier = "="
test_result = 7.05

[[record]]
molecule = "CC(C)NC(=O)NCCNC(=O)Nc1ccc2cc1CCc1cccc(c1)Nc1ncc(Cl)c(n1)N2 [Example B188, trifluoroacetate]"
quantity = "pIC50"
reading_qualifier = "="
test_result = 7.89

[[record]]
molecule = "CNC(=O)Nc1ccc2cc1CCc1cncc(c1)Nc1ncc(Cl)c(n1)N2 [Example B135, bis(trifluoroacetate)]"
quantity = "pIC50"
reading_qualifier = "="
test_result = 8.17

[[record]]
molecule = "Cc1cc(C(=O)N2CC[C@H](NC(=O)Nc3ccc4cc3CCc3cncc(c3)Nc3ncc(Cl)c(n3)N4)C2)no1 [Example B265, bis(trifluoroacetate)]"
quantity = "pIC50"
reading_qualifier = "="
test_result = 7.82

[[record]]
molecule = "CN(Cc1ccc2cc1CCc1cncc(c1)Nc1ncc(Cl)c(n1)N2)C(=O)C1CCN(c2ncccn2)CC1 [Example B338, tris(trifluoroacetate)]"
quantity = "pIC50"
reading_qualifier = "<"
test_result = 6.70

[[record]]
molecule = "O=C(Nc1ccc2cc1CCc1cncc(c1)Nc1ncc(Cl)c(n1)N2)N1CCn2c(nnc2C(F)(F)F)C1 [Example B316, tris(trifluoroacetate)]"
quantity = "pIC50"
reading_qualifier = "="
test_result = 6.68

[[record]]
molecule = "CC(=O)N1CC[C@@H](NC(=O)Nc2ccc3cc2CCc2cccc(c2)Nc2ncc(Cl)c(n2)N3)C1 [Example B177, trifluoroacetate]"
quantity = "pIC50"
reading_qualifier = "="
test_result = 7.41

